Target: Cytochrome P450 1A2 (Homo sapiens) (UniProt P05177)
Sequence (P05177 whole entry, looked up): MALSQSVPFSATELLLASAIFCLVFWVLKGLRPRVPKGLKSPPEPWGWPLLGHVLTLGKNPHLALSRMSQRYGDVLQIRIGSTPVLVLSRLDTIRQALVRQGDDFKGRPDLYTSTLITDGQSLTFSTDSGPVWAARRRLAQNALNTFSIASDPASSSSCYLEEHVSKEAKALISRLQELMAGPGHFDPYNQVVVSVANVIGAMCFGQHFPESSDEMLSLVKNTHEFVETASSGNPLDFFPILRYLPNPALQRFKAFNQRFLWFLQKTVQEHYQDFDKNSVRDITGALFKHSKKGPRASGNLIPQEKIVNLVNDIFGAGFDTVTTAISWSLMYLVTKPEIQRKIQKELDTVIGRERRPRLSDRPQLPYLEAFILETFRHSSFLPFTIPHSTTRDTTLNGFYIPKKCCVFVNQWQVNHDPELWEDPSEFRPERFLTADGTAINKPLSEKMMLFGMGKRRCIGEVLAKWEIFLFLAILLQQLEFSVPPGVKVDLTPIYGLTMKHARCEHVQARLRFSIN
Assay: p450-cyp1a2 (AID 410)
Conditions: recombinant CYP1A2, luciferin-ME demethylation, luminescence; series mostly up to 57 µM
Records with an inconclusive call do not appear. Activity calls are given as the source filed them. Calls follow the shape of the full dose curve.
Write down the outcome that applies. Available outcomes: active, inactive

Test call, this compound: CCC/C=C(\CCC)C(NC(=O)c1ccc(C(F)(F)F)cc1)c1ccccc1 (configuration not stated)
active

Test call, this compound: O=C(Nc1ccc2ccccc2c1)[C@H]1C[C@@H]1[C@H](NP(=O)(c1ccccc1)c1ccccc1)c1ccccc1
active

Test call, this compound: CC(C)C[C@@H](CC(=O)N[C@H](CC(=O)N[C@@H]1CCCC[C@H]1C(=O)N[C@H](CC(=O)N[C@@H](CCC(=O)O)CC(=O)O)CC(C)C)C(C)C)NC(=O)[C@@H]1CNCC[C@H]1N
inactive

Test call, this compound: COC(=O)[C@@]1(Cc2ccc(F)cc2)[C@H]2c3cc(C(=O)N4CCCC4)n(CCc4ccc(O)c(O)c4)c3C[C@H]2CN1C(=O)c1ccccc1
active

Test call, this compound: C/C(=C\CNc1ncnc2c1ncn2[C@@H]1O[C@@H](CO)[C@@H](O)[C@H]1O)CO
inactive

Test call, this compound: CC(C)C[C@@H](CC(=O)N[C@@H](CCCN)CC(=O)N[C@@H]1CCCC[C@H]1C(=O)N[C@H](CC(=O)N[C@@H](CCC(=O)O)CC(=O)O)Cc1ccccc1)NC(=O)[C@@H]1CNCC[C@H]1N
active

Test call, this compound: N#Cc1ccc(OC(=O)c2ccc(N=C(N)N)cc2)cc1
active

Test call, this compound: COc1cc(C(=O)O[C@@H]2CC(C)=CC[C@@]3(C)CC[C@](O)(C(C)C)[C@H]23)ccc1O
active

Test call, this compound: CCCC[C@@H]1C[C@H]1C(NC(=O)c1cccnc1)c1ccc(Cl)cc1 (some centres not stated)
active

Test call, this compound: NCCC[C@@H](CC(=O)N[C@@H]1CCCC[C@H]1C(=O)N[C@H](CC(=O)N[C@@H](CCC(=O)O)CC(=O)O)Cc1c[nH]c2ccccc12)NC(=O)C[C@H](CO)NC(=O)[C@@H]1CCCC[C@H]1N
inactive

Test call, this compound: CCCc1cc2c(n1Cc1ccc(OC)cc1)C(C)C1CN(C(=O)c3ccccc3)C(C)(C(=O)OC)C21 (configuration not stated)
active

Test call, this compound: CCC/C=C(\CCC)C(NS(=O)(=O)c1ccc(Cl)cc1)c1ccccc1 (configuration not stated)
active

Test call, this compound: C=C1CC[C@@H]2[C@](C)(CC[C@@H](O)[C@]2(C)CO)[C@@H]1C/C=C1/C(=O)OC[C@H]1O
inactive

Test call, this compound: OC[C@@H]1O[C@@H](n2cnc3cncnc32)[C@@H](O)[C@H]1O
inactive

Test call, this compound: COC(=O)[C@H]1C[C@@H]1[C@H](NC(=O)c1cccnc1)c1ccccc1
active

Test call, this compound: COC(=O)c1ccc(C#CC(NP(=O)(c2ccccc2)c2ccccc2)c2ccccc2)cc1 (configuration not stated)
active

Test call, this compound: C[C@@H](C(=O)NCc1ccc(S(C)(=O)=O)cc1)[C@@H]1C[C@@]1(C)[C@@H](NC(=O)OCc1ccccc1)c1ccccc1
active

Test call, this compound: COCC1C2CC[C@H]3C(OCc4ccc(OC)cc4)OC[C@]4(C)[C@H]3C2=C(CN4C(=O)OC(C)(C)C)[C@H](C)C1COC (some centres not stated)
active

Test call, this compound: C[C@H](CO)NC(=O)[C@@H]1C[C@H]1[C@@H](NP(=O)(c1ccccc1)c1ccccc1)c1ccccc1
inactive

Test call, this compound: COc1cccc(-c2cc(=O)c3cc(O)ccc3o2)c1
active

Test call, this compound: C#CCOC(=O)NC(/C=C/CCCC)c1ccccc1 (configuration not stated)
active

Test call, this compound: COC(=O)[C@@]1(Cc2ccc(OC)cc2)[C@H]2c3cc(C(=O)N4CCCC4)n(Cc4cc(F)cc5c4OCOC5)c3C[C@H]2CN1C(=O)c1ccccc1
inactive

* * *

Kindly supply the reported activity, negative = inhibition values for the records listed here.
Assay: qHTS profiling for inhibitors of Plasmodium falciparum proliferation (AID 504749);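 also: 0% = DMSO vehicle and full inhibition = artemisinin control; nearly all actives have a fitted effect of over 60% in size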
Conditions: P. falciparum in erythrocytes, SYBR Green DNA, 72 h; at 28.7 µM (top of the series); parasite line A
Inconclusive results are not listed.
Number only, in %; omit the unit.

Record request: activity, negative = inhibition value, item CN1[C@H]2CC(OC(=O)[C@H](CO)c3ccccc3)C[C@H]1[C@H]1O[C@H]12 (stereo partly specified)
1.25

Record request: activity, negative = inhibition value, item C[C@@H]1CCN(C(=O)[C@H](CCCNC(=N)N)NS(=O)(=O)c2cccc3c2NC[C@H](C)C3)[C@@H](C(=O)O)C1
3.79

Record request: activity, negative = inhibition value, item CC(=O)OCC(=O)[C@@]1(O)CCC2C3C[C@H](C)C4=CC(=O)C=CC4(C)C3C(O)CC21C (stereo partly specified)
2.49

Record request: activity, negative = inhibition value, item CCN(CC)C(=O)Nc1ccc(OC[C@H](O)CNC(C)(C)C)c(C(C)=O)c1
5.16

Record request: activity, negative = inhibition value, item C=C1/C(=C\C=C2/CCC[C@]3(C)[C@@H]([C@H](C)/C=C/[C@@H](O)C4CC4)CC[C@@H]23)C[C@@H](O)C[C@@H]1O
-4.72

Record request: activity, negative = inhibition value, item C[C@]12CC[C@@H]3c4ccc(O)cc4CC[C@H]3[C@@H]1C[C@H](O)C2O (stereo partly specified)
7.19

* * *

Assay: NFAT Signaling Pathway (AID 444);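 also: carbachol stimulus at about its EC50 of 1 µM final; % is scaled to controls: 0 for no effect and ±100 for the full control effect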
Conditions: Jurkat NFAT-bla M1, carbachol, beta-lactamase ratio, 5 h; at 17.2 µM (top of the series) unless noted
Records with an inconclusive call do not appear. Calls of active or inactive are those of the source. Calls come from the whole dose curve; as a rule, active = well fitted curve in either direction with a large enough effect (not every such curve was filed as active); inconclusive = small, poorly fitted or top-dose-only effect, or another doubt; inactive = flat fitted curve, though single readings scatter.
Measurement name: activity change, negative = inhibition

Record request: activity change, negative = inhibition value, item O=C(O)CC1SC(=Nc2cccc(C(F)(F)F)c2)NC1=O (configuration not stated)
9.67% (inactive)

Record request: activity change, negative = inhibition value, item CCOC(=O)CSc1nc(N(C)C)nc(N(C)C#N)n1
-3.44% (inactive)

Record request: activity change, negative = inhibition value, item CC(C)Nc1nc(NC(C)C)nc(N(C)n2cnnc2)n1
-6.19% (inactive)

Record request: activity change, negative = inhibition value, item O=C1NC2c3ccccc3C(=O)N2c2c1cnn2-c1ccccc1 (configuration not stated)
-1.9% (inactive)

Record request: activity change, negative = inhibition value, item COc1ccc(/C(O)=C2\C(=O)C(=O)N(CCN3CCOCC3)C2c2ccccc2OC)cc1 (configuration not stated)
15.6% (inactive)

Record request: activity change, negative = inhibition value, item CN(C)S(=O)(=O)Nc1ccc(NS(=O)(=O)N(C)C)c(S(=O)(=O)c2ccccc2)c1
-5.57% (inactive)

Record request: activity change, negative = inhibition value, item Cc1cc(C)n(C(=O)CNC(=O)c2ccc3c(c2)OCCO3)n1
-6.13% (inactive)

Record request: activity change, negative = inhibition value, item Cc1cc(O)c(C(C)C)cc1N=C1CSC(=O)N1
-9.06% (inactive)

Record request: activity change, negative = inhibition value, item CCOc1ccc2nc(SCC(=O)Nc3ncccn3)[nH]c2c1
0.119% (inactive)

Record request: activity change, negative = inhibition value, item Cn1c(=O)c2c(nc(Oc3ccc4c(c3)OCO4)n2Cc2ccc(Br)cc2)n(C)c1=O
-5.35% (inactive)

Record request: activity change, negative = inhibition value, item CC(C)Cc1[nH]c(=O)c(C#N)c2c1CCCC2
2.23% (inactive)

Record request: activity change, negative = inhibition value, item COC(=O)C(NC(C)=O)(Nc1nc2c(s1)CCCC2)C(F)(F)F (configuration not stated)
-2.64% (inactive)

Record request: activity change, negative = inhibition value, item Cc1cc(=O)oc(C)c1C(=O)NC1CC(C)(C)NC(C)(C)C1
-3.93% (inactive)

Record request: activity change, negative = inhibition value, item Cc1cc2c(c(=O)n1CC1CCCO1)C(c1ccc3c(c1)OCO3)C(C#N)=C(N)O2 (configuration not stated)
-16.1% (inactive)

Record request: activity change, negative = inhibition value, item CN(C)c1ccc(NC(=O)c2sc(SCC(=O)Nc3nccs3)nc2N)cc1
2.32% (inactive)

Record request: activity change, negative = inhibition value, item CN1C(=O)c2ccc(N(C)C)cc2C1=O
-12.3% (inactive)

Record request: activity change, negative = inhibition value, item O=S1(=O)C[C@@H](N2CCOCC2)[C@H](N2CCOCC2)C1
6.36% (inactive)

Record request: activity change, negative = inhibition value, item CCOc1ccc2nc(NC(NC(C)=O)(C(=O)OC)C(F)(F)F)sc2c1 (configuration not stated)
0.18% (inactive)

Record request: activity change, negative = inhibition value, item Cc1cc(=O)oc2cc(OCC(=O)NCc3cccnc3)ccc12
-8.13% (inactive)

Record request: activity change, negative = inhibition value, item O=C(c1nsnc1-c1ccccc1O)N1CCCCC1
6.47% (inactive)

Record request: activity change, negative = inhibition value, item COc1ccc2nc(SCC(=O)O)nc(C)c2c1
7.89% (inactive)

Record request: activity change, negative = inhibition value, item Cc1cccn2c(=O)c3cc(C(=O)NCc4cccnc4)c(=N)n(C)c3nc12
5.48% (inactive)
